# test.protocol: viability of HCT116 lacking mutant beta-catenin – cell-based, human colon tumor, dose response (AID 1045);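 note: HCT116 colon tumor cells with beta catenin knocked out; cells exposed to compound for 60 hours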
# Type: functional
Calls of active or inactive are those of the source.
This listing pairs compounds with measured EC50.

# count of solved cases: 4
Entry O=C(Nc1ccc2oc(-c3ccc(Cl)c(Cl)c3)nc2c1)c1nc[nH]n1 has what EC50?
4.31 µM (active)

What about this compound? Cc1cccc(-c2cc3nc(C)cc(N4CC(C)CC(C)C4)n3n2)c1 (stereo not given)
43.9 µM (active)

What about this compound? COc1ccc(Nc2nc(Nc3ccc(OC)cc3)nc(SC3=NCCS3)n2)cc1
71.1 µM (active)

What about this compound? Cn1c(N/N=C2\CCCc3ccccc32)nc2c1c(=O)n(Cc1ccc(F)cc1)c(=O)n2C
10.2 µM (active)

Consider the additional compound presented here.
Entry COc1cc(C2CC(=O)c3c([nH]c(C(=O)OCCOC(C)C)c3C)C2)cc(OC)c1OC (stereo not given) has what EC50?
31 µM (active)

----------
# target.or.system: Protein RecA (Mycobacterium tuberculosis)
# test.protocol: Fluorescence Cell-Free Homogeneous Dose Retest to Identify Inhibitors of RecA-Intein Splicing Activity. [Related pubchem assays (depositor defined):AID2097, AID2223, AID489010, AID492950]
# Assay type: functional
Activity calls are given as the source filed them.
Can you answer with just one of these options? active, inactive

Record excerpt, results attached:
Which result was noted for this molecule in the test: COc1ccc2nc3cccc(OC)c3nc2c1
active

What about this molecule? CCC(=O)OCCNc1cc(SCCC(=O)OC)c2nonc2c1[N+](=O)[O-]
active

What about this molecule? Cc1c([N+](=O)[O-])cnc(Sc2ccccc2)c1[N+](=O)[O-]
active

What about this molecule? Cc1cc(C)nc(N2N=C(C(C)(C)C)CC2=O)n1
active

What about this molecule? O=C(CSc1nc2ccccc2nc1SCC(=O)N1CCOCC1)N1CCOCC1
inactive

What about this molecule? O=[N+]([O-])c1cccc(/C=N/c2cccc3ccccc23)c1O
active

What about this molecule? CCOC(=O)C1CCN(S(=O)(=O)c2c(Cl)ccc3nonc23)CC1
active

What about this molecule? COc1ccc(/C=C2\SC(=S)N(CCCC(=O)Nc3ccc(O)cc3)C2=O)cc1
active

Continuing:
Which result was noted for this molecule in the test: O=C(O)CC1S/C(=N/N=C/c2ccc(-c3ccccc3[N+](=O)[O-])o2)NC1=O (configuration not stated)
active

What about this molecule? CCCn1nc([N+](=O)[O-])c(C(C#N)c2nc3ccccc3s2)c(Cl)c1=O (configuration not stated)
active

What about this molecule? CCCCNC1C(CC)C(CCC)C(C#N)(C#N)C1(C#N)C#N (configuration not stated)
active

What about this molecule? Cc1cccc(CSc2nc3c(c(-c4cccs4)c2C#N)CN(C)CC3)c1
active

----------
# target.or.system: Trypsin (Sus scrofa, UniProt P00761)
# Sequence (P00761 whole entry): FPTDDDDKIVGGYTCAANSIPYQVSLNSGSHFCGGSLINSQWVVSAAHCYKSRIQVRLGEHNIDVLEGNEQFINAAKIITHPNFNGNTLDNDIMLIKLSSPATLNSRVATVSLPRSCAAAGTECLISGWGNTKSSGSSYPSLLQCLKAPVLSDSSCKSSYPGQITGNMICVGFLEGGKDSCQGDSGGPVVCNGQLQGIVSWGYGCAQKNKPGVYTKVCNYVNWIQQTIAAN
# test.protocol: trypsin protease activity blockade – biochemical, quenched peptide fluorescence, cherry-pick, selectivity assay for Rce1 protease inhibitor project, dose response (AID 488789)
The source made the active and inactive calls.
This listing pairs molecules with measured AC50.

# count of solved cases: 3
Recall the recorded AC50 for CCN(CC)CCn1c2ccccc2c2cnc(/N=C/N(C)C)c(C#N)c21 with Trypsin (Sus scrofa, UniProt P00761) and state it.
18 µM (active)

What about this molecule? COC(=O)c1cnn2c3c(c(C)nc12)CCCC3
8.29 µM (active)

What about this molecule? COc1ccc(C[C@H]2c3cc(O)c(OC)cc3CC[N+]2(C)[O-])cc1O (some centres undefined)
13.9 µM (active)

Consider the additional molecule presented here.
Recall the recorded AC50 for O=C(Nc1ccccc1)n1ccc(-c2ccc(-n3ccnc3)cc2)n1 with Trypsin (Sus scrofa, UniProt P00761) and state it.
17.9 µM (active)

Taken from ChEMBL document CHEMBL1201862.
